Every entry's value here was drawn from patent US20030068675.

# SYSTEM_NAME: T1, ZFP SBS#340 (synthetic)
# T1 chain: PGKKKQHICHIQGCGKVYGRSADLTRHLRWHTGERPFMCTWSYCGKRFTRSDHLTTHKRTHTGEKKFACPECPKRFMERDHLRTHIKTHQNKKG
# EXPERIMENT_SUMMARY: EMSA
# TEST_SETTINGS: tags: MBP fusion
PROPERTY: pKd
One number for each entry, as −log10 of the molar value.

Entry TGCGGGGCAA (dsDNA) DNA 1: TGCGGGGCAA DNA 2: TTGCCCCGCA ; pKd = 7.32
